Below: compounds with IC50 recorded for Tyrosine-protein kinase JAK1 (Homo sapiens) in separate published works.

Some compounds with recorded IC50:
>>> observed_measurement("Cc1cc(Nc2ncc(C)c(N3CC(CC#N)(N4CCCC5(C4)CC5(F)F)C3)n2)sn1 (stereo not shown)")
"< 10 nM"
>>> observed_measurement("N#CCC1(n2cc(-c3ncnc4[nH]ccc34)cn2)CN(C2CCN(C(=O)c3c(F)cc(C#N)cc3F)CC2)C1")
"≤ 5 nM"
>>> observed_measurement("N#CCC1(n2cc(-c3ncnc4[nH]ccc34)cn2)CN(C2CCN(C(=O)Nc3ccccc3F)CC2)C1")
"≤ 5 nM"

Q: Could you share which IC50 value was measured for O=C(Nc1cccc(C(F)(F)F)c1)c1cccc(-c2ccc3c(c2)[nH]c2ncncc23)c1 ?
A: ≤ 500 nM

----------
Below: compounds with pIC50 recorded for Tyrosine-protein kinase JAK1 (Homo sapiens, UniProt P23458) in separate published works.
// pIC50 here means minus log10 of the molar concentration (mol/L)

Some compounds with recorded pIC50:
>>> observed_measurement("COCCCS(=O)(=O)NC12CC(n3cnc4cnc5[nH]ccc5c43)(C1)C2")
7.58
>>> observed_measurement("Cc1cc(Nc2nc(N[C@@H]3C[C@H]4CC[C@@H](C3)N4CCF)nc3ccccc23)n[nH]1")
6.95
>>> observed_measurement("Cc1cc(Nc2nc(N[C@@H]3C[C@H]4CC[C@@H](C3)N4C(=O)c3cccnc3)nc3ccccc23)n[nH]1")
8.29

// moving on: another record for pIC50
Q: Could you share what pIC50 was measured for CNC(=O)c1n[nH]c2cc(-c3cc(F)c(O)cc3CC(F)(F)F)nc(NCc3ccccc3N(C)S(=O)(=O)c3cn[nH]c3)c12 , tested on Tyrosine-protein kinase JAK1 (Homo sapiens, UniProt P23458)?
A: 7.99

----------
pIC50: −log10 of the molar value.
Below: compounds with pIC50 recorded for Tyrosine-protein kinase JAK1 (Homo sapiens) in separate published works.

>>> observed_measurement("CCO[C@H]1CNc2cc(Nc3ncc(C(N)=O)c(NC4CC4)n3)ccc2OC1")
"> 8.00"
>>> observed_measurement("N#C[C@@H]1CCCC[C@H]1n1cc(C(N)=O)c(Nc2ccc3c(c2)B(O)OC3)n1 (relative stereo)")
"> 8.00"
>>> observed_measurement("N#CCC1(n2cc(-c3ncnc4[nH]ccc34)cn2)CN(C2CCN(C(=O)c3sc4cc(F)ccc4c3Cl)CC2)C1")
"≥ 8.30"
>>> observed_measurement("N#CCC1(n2cc(-c3ccnc4[nH]ccc34)cn2)CN(C2CCN(C(=O)c3ccc(O)cc3F)CC2)C1")
"≥ 8.30"
>>> observed_measurement("C[C@@H]1CCOCc2cc(ccc2OC2CC2)Nc2nccc(n2)-c2ccc(cc2N)C(=O)NC1")
"6.00 to 7.00"

Q: Could you share which pIC50 value was measured for C=CCC(CC1CC1)n1cc(-c2nc(-c3cnn(C)c3)cc3nccn23)cn1 (stereo not drawn) ?
A: 6.00 to 7.00

Q: Could you share which pIC50 value was measured for Cc1ccc(NC(=O)N2CCC(N3CC(CC#N)(n4cc(-c5ncnc6[nH]ccc56)cn4)C3)CC2)c(C)n1 ?
A: 7.70 to 8.30

----------
Below: compounds with pIC50 recorded for Tyrosine-protein kinase JAK1 (Homo sapiens, UniProt P23458) in separate published works.
pIC50: −log10 of the molar value.

Some compounds with recorded pIC50:
>>> observed_measurement("Cc1cnc(Nc2ccc(N3CCC(N(C)CC4CC4)CC3)c(F)c2)nc1-c1cnn(C(C)C)c1")
7.33
>>> observed_measurement("CN(c1ncnc2[nH]ccc12)C1CC2(C1)CN(C(=O)c1ccc(Cl)cc1)C2")
"7.00 to 8.00"
>>> observed_measurement("CC(C)=C(C#N)C(=O)Nc1cccc2c(-c3cc(C)nc(NC(=O)C4CC4)c3)c[nH]c12")
"< 6.00"
>>> observed_measurement("COc1cncc(NC(=O)N2C[C@H]3C[C@H](N(C)c4ncnc5[nH]ccc45)C[C@H]3C2)c1")
7.82

Q: Could you share what pIC50 was measured for CC(C)=C(C#N)C(=O)Nc1cc(C)cc2c(-c3ccnc(NC(=O)C4CC4)c3)c[nH]c12 , tested on Tyrosine-protein kinase JAK1 (Homo sapiens, UniProt P23458)?
A: 6.00 to 7.00

Q: Could you share what pIC50 was measured for O=C1Nc2ccc(cc2)OCc2cc(ccc2Oc2cccnc2)Nc2nccc(n2)-c2ccc1cc2[N+](=O)[O-] , tested on Tyrosine-protein kinase JAK1 (Homo sapiens, UniProt P23458)?
A: 5.00 to 6.00

Q: Could you share what pIC50 was measured for O=S(=O)(NC12CC(n3cnc4cnc5[nH]ccc5c43)(C1)C2)C1CC1 , tested on Tyrosine-protein kinase JAK1 (Homo sapiens, UniProt P23458)?
A: 7.34

Q: Could you share what pIC50 was measured for O=C1NCCCCOCc2cc(ccc2N2CCOCC2)Nc2nccc(n2)-c2ccc1cc2 , tested on Tyrosine-protein kinase JAK1 (Homo sapiens, UniProt P23458)?
A: 7.00 to 7.96

Q: Could you share what pIC50 was measured for N#C[C@H]1C[C@H]1C(=O)Nc1cccc2c1ccn2-c1ccnc(NC(=O)C2CC2)c1 , tested on Tyrosine-protein kinase JAK1 (Homo sapiens, UniProt P23458)?
A: > 7.00

Q: Could you share what pIC50 was measured for CCCCNc1nc(-c2cc(F)c(O)cc2CC(F)(F)F)nc2[nH]ncc12 , tested on Tyrosine-protein kinase JAK1 (Homo sapiens, UniProt P23458)?
A: 7.11

Q: Could you share what pIC50 was measured for CCOC(=O)Cn1cc(Nc2ncc3ccn(CC4CCCCC4(F)F)c3n2)cn1 (centres unmarked) , tested on Tyrosine-protein kinase JAK1 (Homo sapiens, UniProt P23458)?
A: > 7.00

Q: Could you share what pIC50 was measured for COc1ccc(CN2CCC(N3CC(CC#N)(n4cc(-c5ncnc6[nH]ccc56)cn4)C3)CC2)c(Cl)c1OC , tested on Tyrosine-protein kinase JAK1 (Homo sapiens, UniProt P23458)?
A: 7.70 to 8.30

Q: Could you share what pIC50 was measured for Cc1cc2ccc1-c1nc(ncc1C)Nc1ccc(Cl)c(c1)COCCCCNC2=O , tested on Tyrosine-protein kinase JAK1 (Homo sapiens, UniProt P23458)?
A: < 5.00

Q: Could you share what pIC50 was measured for O=C(NCCC(O)C1CCCC1)c1noc2c1CN(c1ncnc3[nH]ccc13)CC2 (centres unmarked) , tested on Tyrosine-protein kinase JAK1 (Homo sapiens, UniProt P23458)?
A: 5.70 to 6.30

Q: Could you share what pIC50 was measured for N#CCC1(n2cc(-c3ncnc4[nH]ccc34)cn2)CN(C2CCN(C(=O)Nc3cc(F)cc(F)c3)CC2)C1 , tested on Tyrosine-protein kinase JAK1 (Homo sapiens, UniProt P23458)?
A: ≥ 8.30

Q: Could you share what pIC50 was measured for C#CC1(O)CN(c2nc(Nc3cc(C)ns3)ncc2C)C1 , tested on Tyrosine-protein kinase JAK1 (Homo sapiens, UniProt P23458)?
A: > 8.00

Q: Could you share what pIC50 was measured for Cn1cc(-c2cc3nccn3c(-c3cnn(C4(CC#N)CCN(CC(F)(F)F)CC4)c3)n2)cn1 , tested on Tyrosine-protein kinase JAK1 (Homo sapiens, UniProt P23458)?
A: 6.00 to 7.00

----------
Below: compounds with IC50 recorded for Tyrosine-protein kinase JAK1 (Homo sapiens, UniProt P23458) in separate published works.

>>> observed_measurement("CCC(Cn1ccc2cnc(Nc3cnn(CC(=O)OC[C@@H](C)O)c3)nc21)C(C)C (stereo partly shown)")
"< 0.1 µM"

Q: Could you share what IC50 was measured for Nc1cc2ccc1-c1ccnc(n1)Nc1ccc(OCC3CCc4ccccc43)c(c1)COCCCCNC2=O (stereo not shown) , tested on Tyrosine-protein kinase JAK1 (Homo sapiens, UniProt P23458)?
A: 1 to 10 µM

Q: Could you share what IC50 was measured for O=C(CN1CCCCC1)Nc1cccc(-c2cnc3ccccc3n2)c1 , tested on Tyrosine-protein kinase JAK1 (Homo sapiens, UniProt P23458)?
A: > 20 µM

Q: Could you share what IC50 was measured for N#CCC1(n2cc(-c3nc(-c4cnn(C5COC5)c4)cc4nccn34)cn2)CC2(CCC2)C1 , tested on Tyrosine-protein kinase JAK1 (Homo sapiens, UniProt P23458)?
A: 0.1 to 1 µM

----------
Below: compounds with IC50 recorded for Tyrosine-protein kinase JAK1 (Homo sapiens, UniProt P23458) in separate published works.

Some compounds with recorded IC50:
>>> observed_measurement("CC1CCNC(=O)c2ccc(c(N)c2)-c2ccnc(n2)Nc2ccc(OCC(F)(F)F)c(c2)COC1 (stereo not drawn)")
"1000 to 10000 nM"
>>> observed_measurement("CN(c1ccccc1CNc1nc(-c2cc(F)c(O)cc2CC(F)(F)F)cc2[nH]nc(C(N)=O)c12)S(=O)(=O)c1ccc(N2CCOCC2)nc1")
"23.3 nM"
>>> observed_measurement("C#CCC(C1CC1)n1cc(-c2nc(-c3cnn(C)c3)cc3nccn23)cn1 (stereo not drawn)")
"100 to 1000 nM"
>>> observed_measurement("O=C(NCCc1ccccc1)c1noc2c1CN(c1ncnc3[nH]ccc13)CC2")
"100 to 500 nM"
>>> observed_measurement("COc1cnc2nc1NCCCCCNC(=O)c1ccc(cc1)-c1cnc(F)c(c1)N2")
"1000 to 10000 nM"
>>> observed_measurement("O=C(NCCC(F)(F)F)c1nn(CCCc2ccccc2)c2c1CN(c1ncnc3[nH]ccc13)CC2")
"500 to 2000 nM"
>>> observed_measurement("Cc1cc(Nc2ncc(C)c(N3CC(CC#N)(NC(=O)C4CCCCC4(F)F)C3)n2)sn1 (stereo not drawn)")
"< 50 nM"
>>> observed_measurement("CNC(=O)c1n[nH]c2cc(-c3cc(F)c(O)cc3CC(F)(F)F)nc(NCc3cc(C)ccc3N(C)S(C)(=O)=O)c12")
"8.7 nM"

Q: Could you share which IC50 value was measured for Cc1cc(Nc2nc(N[C@@H]3C[C@H]4CC[C@@H](C3)N4CCC#N)nc3ccc(Cl)cc23)n[nH]1 ?
A: 10.6 nM

Q: Could you share which IC50 value was measured for COc1cc2cc(c1)Nc1nc(ncc1C)Nc1cc(cnc1F)-c1ccc(cc1)C(=O)NCC2 ?
A: 101 to 1000 nM

Q: Could you share which IC50 value was measured for N#CCCC1CCN(n2cnc3cnc4[nH]ccc4c32)CC1 ?
A: 0.57 nM

Q: Could you share which IC50 value was measured for O=C(NCCC1COC1)c1noc2c1CN(c1ncnc3[nH]ccc13)CC2 ?
A: 100 to 500 nM

Q: Could you share which IC50 value was measured for CN(c1ncnc2[nH]ccc12)N1CCOC(C(=O)NCC(F)(F)F)C1 (stereo not drawn) ?
A: 10 to 100 nM

Q: Could you share which IC50 value was measured for CCOC(=O)Cn1cc(Nc2ncc3ccn(CC(C)(C)C)c3n2)cn1 ?
A: 100 to 1000 nM

Q: Could you share which IC50 value was measured for Cc1cc(Nc2ncc(C)c(N3CC(CC#N)(N4CCC5(CC4)CC5(F)F)C3)n2)sn1 ?
A: < 10 nM

Q: Could you share which IC50 value was measured for C[C@H]1C[C@@H](Nc2c(-c3nncs3)cnc3[nH]ccc23)CN(C(=O)CC#N)C1 ?
A: ≤ 10 nM

Q: Could you share which IC50 value was measured for Cc1ccc2cc1COCCCCNC(=O)c1ccc(c(C)c1)-c1ccnc(n1)N2 ?
A: 1000 to 10000 nM

Q: Could you share which IC50 value was measured for CN(c1ncnc2[nH]ccc12)C1CC2(C1)CN(C(=O)c1cc(C#N)cc(F)c1F)C2 ?
A: ≤ 10 nM

Q: Could you share which IC50 value was measured for N#CCC(=O)N1CCC[C@@H](Nc2c(-c3nc(C(N)=O)co3)cnc3[nH]ccc23)C1 ?
A: ≤ 10 nM

Q: Could you share which IC50 value was measured for N#CCC1(n2cc(-c3ccnc4[nH]ccc34)cn2)CN(C2CCN(C(=O)Nc3ccccc3Cl)CC2)C1 ?
A: ≤ 5 nM

Q: Could you share which IC50 value was measured for CCNc1nc(Nc2ccc3c(c2)NC[C@H](O)CO3)ncc1C(N)=O ?
A: 10 to 100 nM

Q: Could you share which IC50 value was measured for CN(c1nc(Nc2cnn(C)c2)ncc1Cl)C1CCN(c2ccc(C#N)cn2)C1 (stereo not drawn) ?
A: 22 nM

Q: Could you share which IC50 value was measured for Cc1nn(C)cc1S(=O)(=O)N1CC(CCF)(n2cc(-c3nc(-c4cnn(C)c4)cc4nccn34)cn2)C1 ?
A: 100 to 1000 nM

Q: Could you share which IC50 value was measured for CC(C)NC(=O)N[C@H]1CC[C@H](N(C)c2ncnc3[nH]ccc23)CC1 ?
A: 40 nM

Q: Could you share which IC50 value was measured for COc1nsc(NC(=O)N2C[C@H]3C[C@H](N(C)c4ccnc5[nH]ccc45)C[C@H]3C2)n1 ?
A: 23 nM
